Reported Glycaemia evolution is given for each of the following compounds.
- Test system: Rattus norvegicus
- EXPERIMENT NOTES: Percent glycaemia evolution at 200 mg/kg at 2 hr after a sharp administration (J1) in Wistar rats
- Assay type: functional
MEASUREMENT TYPE: Glycaemia evolution (%)

| COMPOUND | SUBJECT OF TEST | MEASUREMENT |
| --- | --- | --- |
| CCn1cc(C(=O)N=C(N)N)c(=O)c2ccc(C)nc21.Cl | Rattus norvegicus | -4 |
| CCOc1cc(C(=O)N=C(N)N)nc2ccc(F)cc12.Cl | Rattus norvegicus | -5 |
| CCOc1cc(C(=O)NNC(N)=O)nc2ccc(F)cc12 | Rattus norvegicus | 8 |
| CCOc1cc(C(=O)N=C(N)N)nc2cc3c(cc12)OCO3.Cl | Rattus norvegicus | -4 |
| CCOc1cc(C(=O)NN=C(N)N)nc2ccc(F)cc12.Cl | Rattus norvegicus | -4 |
| CCn1cc(C(=O)NN=C(N)N)c(=O)c2cc(OC)ccc21.Cl | Rattus norvegicus | 6 |
| CCOc1cc(C(=O)Nc2nn[nH]n2)nc2ccc(F)cc12 | Rattus norvegicus | 9 |
| Cl.N=C(N)NC(=O)c1cc(Cl)c2cc(F)ccc2n1 | Rattus norvegicus | 58 |
| Cl.N=C(N)NNC(=O)c1cc(O)c2cc(F)ccc2n1 | Rattus norvegicus | 8 |
| CCn1cc(C(=O)N=C(N)N)c(=O)c2cc(OC)ccc21.Cl | Rattus norvegicus | 0 |
| CCN1CC(C(=O)N/N=C(\N)N=C(N)N)C(=O)c2cc(OC)ccc21.Cl (stereo unspecified) | Rattus norvegicus | 2 |
